study target: taurine transporter (TauT) (Homo sapiens, UniProt P31641)
Sequence (P31641 1-620): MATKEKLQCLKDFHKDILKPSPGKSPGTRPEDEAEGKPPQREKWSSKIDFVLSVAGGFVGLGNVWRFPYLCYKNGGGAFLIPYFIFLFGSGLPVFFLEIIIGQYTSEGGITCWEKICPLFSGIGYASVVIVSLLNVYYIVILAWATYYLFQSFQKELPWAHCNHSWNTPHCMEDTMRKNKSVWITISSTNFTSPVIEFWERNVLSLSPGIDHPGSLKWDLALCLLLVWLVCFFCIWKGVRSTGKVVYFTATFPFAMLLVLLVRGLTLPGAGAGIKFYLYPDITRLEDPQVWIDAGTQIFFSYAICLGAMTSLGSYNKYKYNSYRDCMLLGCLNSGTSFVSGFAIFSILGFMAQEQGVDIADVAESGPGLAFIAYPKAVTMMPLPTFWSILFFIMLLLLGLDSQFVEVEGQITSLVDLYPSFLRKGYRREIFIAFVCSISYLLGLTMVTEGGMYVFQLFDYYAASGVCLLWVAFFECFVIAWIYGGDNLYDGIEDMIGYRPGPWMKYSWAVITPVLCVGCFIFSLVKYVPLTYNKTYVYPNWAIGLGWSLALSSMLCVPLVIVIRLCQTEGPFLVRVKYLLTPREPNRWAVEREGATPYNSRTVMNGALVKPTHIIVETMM
test protocol: cryo-EM structure
measurement name: pIC50
One number for each entry, as −log10 of the molar value.

Reported pIC50 of NCCCC(=O)O : 2.89
